Data provenance is patent US8008291B2.

SYSTEM: human MC5R (Homo sapiens)
Sequence (P33032 whole entry): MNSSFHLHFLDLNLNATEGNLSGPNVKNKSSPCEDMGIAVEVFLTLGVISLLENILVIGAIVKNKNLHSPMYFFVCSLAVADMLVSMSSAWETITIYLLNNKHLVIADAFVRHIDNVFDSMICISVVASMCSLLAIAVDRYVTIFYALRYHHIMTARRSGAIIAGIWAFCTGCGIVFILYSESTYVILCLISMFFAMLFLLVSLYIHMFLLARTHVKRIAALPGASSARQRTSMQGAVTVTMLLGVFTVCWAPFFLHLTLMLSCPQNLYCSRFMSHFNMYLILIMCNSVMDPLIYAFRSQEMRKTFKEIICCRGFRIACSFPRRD
PROTOCOL: cAMP stimulation assay, agonism, HEK 293 cells expressing human MC5R
pEC50: −log10 of the molar value.
MEASURED QUANTITY: pEC50

[ask] Report pEC50 for CCC(CC)CN1CC[C@@H](CNC(=O)/C=C/c2ccc(Cl)cc2)N[C@@H](CCN2CCCCC2)C1=O tested on human MC5R (Homo sapiens).
[reply] < 5.00

----------
SYSTEM: human MC5R (hMC5R) (Homo sapiens, UniProt P33032)
Construct: purchased Perkin Elmer RBXMC5M400UA
Sequence (P33032 whole entry): as above
PROTOCOL: Human MC5R radioligand binding assay (membranes, [125I] NDP-MSH displacement)
ASSAY CONTEXT: hMC5R binding; tested as trifluoroacetate or hydrochloride salts, or free bases; read-out: MC5R radioligand IC50
MEASURED QUANTITY: IC50

>>> result("CC(C)c1ccc(/C=C/C(=O)NC[C@@H]2CCN(CC(c3ccccc3)c3ccccc3)C(=O)[C@H](CCN3CCCCC3)N2)cc1")
"< 100 nM"
>>> result("CC[C@H](CN1CC[C@@H](CNC(=O)c2ccc(Cl)c(Cl)c2)N[C@@H](CCN2CCC(C)CC2)C1=O)c1ccccc1")
"< 10 nM"
>>> result("O=C(NC[C@@H]1CCN(CC(c2ccccc2)c2ccccc2)C(=O)[C@H](CCN2CCCC2)N1)c1ccc2ccccc2c1")
"< 100 nM"

[ask] For the compound shown here, CC[C@@H](CN1CC[C@@H](CNC(=O)c2ccc3cc(Cl)ccc3c2)N[C@@H](CCN)C1=O)C(C)C , give the reported IC50.
[reply] < 1000 nM

----------
SYSTEM: human MC5R (hMC5R) (Homo sapiens)
Construct: purchased Perkin Elmer RBXMC5M400UA
PROTOCOL: Human MC5R radioligand binding assay (membranes, [125I] NDP-MSH displacement)
ASSAY CONTEXT: hMC5R binding; tested as trifluoroacetate or hydrochloride salts, or free bases; read-out: MC5R radioligand IC50
MEASURED QUANTITY: IC50

>>> result("CCC(CC)CN1CC[C@@H](CNC(=O)/C=C/c2ccc(Cl)cc2)N[C@@H](CCN)C1=O")
"< 1000 nM"
>>> result("CCC(CC)CN1CC[C@@H](CNC(=O)c2ccc3cc(Br)ccc3c2)N[C@@H](CCN)C1=O")
"< 1000 nM"
>>> result("NCCC[C@@H]1N[C@H](CNC(=O)c2ccc3ccccc3c2)CCN(CC2(c3ccccc3)CCCCC2)C1=O")
"< 1000 nM"
>>> result("CCCCC(CC)C(=O)NC[C@@H]1CCN(CC(c2ccccc2)c2ccccc2)C(=O)[C@H](CCCN)N1 (some centres unmarked)")
"< 10000 nM"
>>> result("CC(=O)N[C@H](Cc1ccc2ccccc2c1)[C@@H]1CCN(CC(c2ccccc2)c2ccccc2)C(=O)[C@H](CCCNC(=N)N)N1")
"< 10000 nM"
>>> result("Cc1cc(F)cc(CN2CC[C@@H](CNC(=O)c3ccc4ccccc4c3)N[C@@H](CCCN)C2=O)c1")
"< 10000 nM"
>>> result("CC(C)[C@H](N)C(=O)NCC[C@@H]1N[C@H](CNC(=O)c2ccc(Cl)c(Cl)c2)CCN(Cc2ccc(Cl)cc2Cl)C1=O")
"< 10000 nM"
>>> result("N=C(N)NCCC[C@@H]1N[C@H](CNC(=O)c2ccc3ccccc3c2)CCN(CC(C(=O)Nc2ccccc2)c2ccccc2)C1=O (some centres unmarked)")
"< 10000 nM"

Give measured IC50 for every item shown.
1. NC[C@@H]1N[C@H](CNC(=O)c2ccc3ccccc3c2)CCN(CC(c2ccccc2)c2ccccc2)C1=O
2. CC[C@H](CN1CC[C@@H](CNC(=O)c2ccc3cc(Cl)ccc3c2)N[C@@H](CCNC(=N)N)C1=O)c1ccccc1
3. CCCCOC(=O)NCC[C@@H]1N[C@H](CNC(=O)c2ccc3cc(Cl)ccc3c2)CCN(C[C@@H](CC)c2ccccc2)C1=O
4. CCC(CC)CN1CC[C@@H](CNC(=O)c2ccc3ccccc3c2)N[C@@H](CCN2CCCCC2)C1=O
5. CC(=O)N[C@H](CN1CC[C@@H](CNC(=O)c2ccc3ccccc3c2)N[C@@H](CCCNC(=N)N)C1=O)c1ccccc1
6. CC[C@H](CN1CC[C@@H](CNC(=O)NCc2ccc(Cl)cc2)N[C@@H](CCN2CCCCC2)C1=O)c1ccccc1

[reply]
1: < 1000 nM; 2: < 100 nM; 3: < 1000 nM; 4: < 100 nM; 5: < 10000 nM; 6: < 1000 nM

----------
SYSTEM: human MC5R (hMC5R) (Homo sapiens, UniProt P33032)
Construct: purchased Perkin Elmer RBXMC5M400UA
PROTOCOL: Human MC5R radioligand binding assay (membranes, [125I] NDP-MSH displacement)
ASSAY CONTEXT: hMC5R binding; tested as trifluoroacetate or hydrochloride salts, or free bases; read-out: MC5R radioligand IC50
MEASURED QUANTITY: IC50

>>> result("O=C(NC[C@@H]1CCN(CC(c2ccccc2)c2ccccc2)C(=O)[C@H](CCCN2CCC2)N1)c1ccc2ccccc2c1 [Compound 262]")
"< 100 nM"

Answer for every listed entry: what is its IC50? The entries follow.
1. CC[C@H](CN1CC[C@@H](CNC(=O)/C=C/c2ccc(Cl)cc2)N[C@@H](CCN2CCCC2)C1=O)c1ccccc1 [Compound 407]
2. NCCCC[C@@H]1N[C@H](CNC(=O)[C@H]2Cc3ccccc3CN2)CCN(CC(c2ccccc2)c2ccccc2)C1=O [Compound 128]
3. CC[C@H](CN1CC[C@@H](CNC(=O)c2ccc(Cl)c(Cl)c2)N[C@@H](CCN2CCCC(F)(F)C2)C1=O)c1ccccc1 [Compound 484]

[reply]
1. < 100 nM
2. < 1000 nM
3. < 1000 nM

List the reported IC50 of each compound below.
1. CCCOC(CN1CC[C@@H](CNC(=O)c2ccc3ccccc3c2)N[C@@H](CCCNC(=N)N)C1=O)c1ccccc1 (stereo partly drawn) [Compound 290]
2. CC[C@H](CN1CC[C@@H](CNC(=O)c2ccc(Cl)c(Cl)c2)N[C@@H](CCN2CCCC[C@@H]2C)C1=O)c1ccccc1 [Compound 453]

[reply]
< 1000 nM
< 10 nM

----------
SYSTEM: human MC5R (hMC5R) (Homo sapiens)
Construct: purchased Perkin Elmer RBXMC5M400UA
PROTOCOL: Human MC5R radioligand binding assay (membranes, [125I] NDP-MSH displacement)
ASSAY CONTEXT: hMC5R binding; tested as trifluoroacetate or hydrochloride salts, or free bases; read-out: MC5R radioligand IC50
MEASURED QUANTITY: IC50

>>> result("CC[C@H](CN1CC[C@@H](CNC(=O)c2ccc(Cl)c(Cl)c2)N[C@@H](CCN(C)C(C)(C)C)C1=O)c1ccccc1 [Compound 454]")
"< 100 nM"
>>> result("C[C@H](C(c1ccccc1)c1ccccc1)N1CC[C@@H](CNC(=O)c2ccc3ccccc3c2)N[C@@H](CCCNC(=N)N)C1=O [Compound 204]")
"< 1000 nM"
>>> result("CC[C@H](CN1CC[C@@H](CNC(=O)c2ccc(Cl)c(Cl)c2)N[C@@H](CCNC(C)C(F)(F)F)C1=O)c1ccccc1 (stereo partly shown) [Compound 491]")
"< 1000 nM"
>>> result("CC[C@H](CN1CC[C@@H](CNC(=O)c2ccc3cc(Cl)ccc3c2)N[C@@H](CNC(C)C)C1=O)c1ccccc1 [Compound 499]")
"< 100 nM"
>>> result("CC[C@@H](CN1CC[C@@H](CNC(=O)c2ccc3cc(Cl)ccc3c2)N[C@@H](CCN2CCCCC2)C1=O)C(C)C [Compound 471]")
"< 100 nM"
>>> result("CCCCC(CC)C(=O)NC[C@@H]1CCN(CC(c2ccccc2)c2ccccc2)C(=O)[C@H](CCCNC(=N)N)N1 (stereo partly shown) [Compound 224]")
"< 1000 nM"

Query compound follows.
[ask] Fill in the blank: the reported IC50 of C=C(C)[C@H](CC)CN1CC[C@@H](CNC(=O)c2ccc3cc(Cl)ccc3c2)N[C@@H](CCN2CCCCC2)C1=O [Compound 479] is ____.
[reply] < 10 nM

----------
SYSTEM: human MC5R (hMC5R) (Homo sapiens, UniProt P33032)
Construct: purchased Perkin Elmer RBXMC5M400UA
PROTOCOL: Human MC5R radioligand binding assay (membranes, [125I] NDP-MSH displacement)
ASSAY CONTEXT: hMC5R binding; tested as trifluoroacetate or hydrochloride salts, or free bases; read-out: MC5R radioligand IC50
MEASURED QUANTITY: IC50

A selection of reference data follows.
>>> result("CC[C@H](CN1CC[C@@H](CNC(=O)c2ccc3cc(Cl)ccc3c2)N[C@@H](CCN2CCOCC2)C1=O)c1ccccc1")
"< 100 nM"
>>> result("NCC[C@@H]1N[C@H](CNC(=O)c2ccc(Cl)c(Cl)c2)CCN(Cc2ccc(Cl)cc2Cl)C1=O")
"< 1000 nM"
>>> result("NCC[C@@H]1N[C@H](CNC(=O)c2ccc3cc(Cl)ccc3c2)CCN(CC(c2ccccc2)c2ccccc2)C1=O")
"< 100 nM"
>>> result("CC(C)c1ccc(/C=C/C(=O)NC[C@@H]2CCN(CC(c3ccccc3)c3ccccc3)C(=O)[C@H](CCN)N2)cc1")
"< 1000 nM"
>>> result("C[C@@H](N1CC[C@@H](CNC(=O)c2ccc3ccccc3c2)N[C@@H](CCCNC(=N)N)C1=O)C(F)(c1ccccc1)c1ccccc1")
"< 1000 nM"
>>> result("CC[C@H](CN1CC[C@@H](CNC(=O)c2ccc(Cl)c(Cl)c2)N[C@@H](CCN2CCNCC2)C1=O)c1ccccc1")
"< 100 nM"

Look up IC50 for the entries below, preserving their order.
1. CCC(CN1CC[C@@H](CNC(=O)c2ccc3ccccc3c2)N[C@@H](CCCN2CCCCC2)C1=O)c1ccccc1 (some centres unmarked)
2. NCCC[C@@H]1N[C@H](CNC(=O)c2cc3ccccc3[nH]2)CCN(CC(c2ccccc2)c2ccccc2)C1=O
3. N=C(N)NCCC[C@@H]1N[C@H](CNC(=O)c2ccc3ccccc3c2)CCN(Cc2cc(Cl)cc(Cl)c2)C1=O
4. CC[C@H](CN1CC[C@@H](CNC(=O)c2ccc(Cl)c(Cl)c2)N[C@@H](CCNc2ccccc2)C1=O)c1ccccc1
5. CC1CC(C)CC(CN2CC[C@@H](CNC(=O)c3ccc(Cl)c(Cl)c3)N[C@@H](CCN)C2=O)C1 (some centres unmarked)
6. CC[C@H](CN1CC[C@@H](CNC(=O)c2ccc(Cl)c(Cl)c2)N[C@@H](CCN2C(=O)CC(C)(C)C2=O)C1=O)c1ccccc1
7. CC1CCC(C)N1CC[C@@H]1N[C@H](CNC(=O)/C=C/c2ccc(Cl)cc2)CCN(CC(c2ccccc2)c2ccccc2)C1=O (some centres unmarked)
8. N=C(N)NCCC[C@@H]1N[C@H](CNC(=O)c2ccc3ccccc3c2)CCN(Cc2ccc3ccccc3c2)C1=O

[reply]
1: < 100 nM; 2: < 1000 nM; 3: < 100 nM; 4: < 1000 nM; 5: < 1000 nM; 6: < 10000 nM; 7: < 100 nM; 8: < 10000 nM
